Test system: GB4
assay-method-text: qHTS profiling for inhibitors of Plasmodium falciparum proliferation (AID 504749); note: nearly all actives have a fitted effect of over 60% in size
experimental-conditions: P. falciparum in erythrocytes, SYBR Green DNA, 72 h; series mostly up to 28.7 µM
Records with an inconclusive call do not appear. Calls of active or inactive are those of the source. Calls come from the whole dose curve; as a rule, active = well fitted inhibition curve with a large enough effect; inconclusive = small, poorly fitted or top-dose-only effect; inactive = flat fitted curve, though single readings scatter.
Respond using exactly one of the listed classes: y = active, n = inactive

COC1CC(=C(c2cccs2)c2cccs2)C[N+](C)(C)C1 (configuration not stated)    y

Call for entry O=P1(N(CCCl)CCCl)NCCCO1 (configuration not stated) : n

Now the same for C[C@]12CCC(=O)C=C1CC[C@@H]1[C@@H]2CC[C@]2(C)C(=O)CC[C@@H]12 n

Similarly, Cc1ncsc1CCCl ? n

Please do the same for CCC1(c2ccccc2)C(=O)N(COC)C(=O)N(COC)C1=O as well. n

Subsequent entry: O=C1CN=C(c2ccccc2)c2cc([N+](=O)[O-])ccc2N1 n

Request: Oc1ccc(Cl)cc1 n

====

Test system: HaCat
assay-method-text: Cytotoxic Profiling of Annotated Libraries Using Quantitative High-Throughput Screening (AID 1296008); note: % is set by controls: 0 for no effect and ±100 for the full control effect; nearly all actives have a fitted effect of over 60% in size
experimental-conditions: Five cell lines viability, CellTiter-Glo ATP luminescence, 48-72 h; hits give low values
Results filed as inconclusive are left out.
Each entry below lists one item and its recorded max response value.
Return type: number; implicit unit %.

COc1cc(CCN)cc(OC)c1OC    -15.9

// max response lookup, key: O=C(O)/C=C\C(=O)O 1.05

====

assay-method-text: qHTS assay for small molecule activators of the p53 signaling pathway (AID 651743); note: % of control where 0% means no effect
experimental-conditions: HCT-116 p53RE-bla, beta-lactamase FRET ratio, 16 h; hits give high values
Records with an inconclusive call do not appear.
reported-metric: activation (%)
Quick reminder: number only, in %, skip the unit.

O=C1c2ccccc2C(=O)C1C(=O)C(c1ccccc1)c1ccccc1    23.1

Now let's try a different one.
I have this compound here, CC1(C)C(C=C(Cl)Cl)C1C(=O)OC(C#N)c1cccc(Oc2ccccc2)c1 (stereo unspecified) , and I need its recorded activation. -1.45

====

Test system: W2
assay-method-text: qHTS profiling for inhibitors of Plasmodium falciparum proliferation (AID 504749); note: nearly all actives have a fitted effect of over 60% in size
experimental-conditions: P. falciparum in erythrocytes, SYBR Green DNA, 72 h; series mostly up to 28.7 µM
Records with an inconclusive call do not appear. Activity calls are given as the source filed them. Calls follow the shape of the dose curve; as a rule, active = well fitted inhibition curve with a large enough effect; inconclusive = small, poorly fitted or top-dose-only effect; inactive = flat fitted curve, though single readings scatter.
Choose one outcome from this list and give only that: 1 for active, 0 for inactive

Answered cases to consult:
CN1C(=O)CC(=O)N(c2ccccc2)c2cc(Cl)ccc21    0
O=C1c2ccccc2C(=O)c2ccccc21    1
C[C@]12CCC(=O)C=C1CC[C@@H]1[C@@H]2CC[C@]2(C)C(=O)CC[C@@H]12    0
O=c1[nH]oc2c1CCNC2    0
COP(=S)(OC)Oc1ccc(S(=O)(=O)N(C)C)cc1    0

Consider the record given below.
Call for entry C=CCN1C[C@H](C)N([C@H](c2ccc(C(=O)N(CC)CC)cc2)c2cccc(OC)c2)C[C@H]1C : 1

====

System: MCC-26
assay-method-text: qHTS assay to identify novel small-molecules to repurpose for Merkel cell carcinoma treatment (AID 1296009); note: nearly all actives have a fitted effect of over 60% in size
experimental-conditions: MCC and control cell lines, CellTiter-Glo viability, 72 h; series mostly up to 46 µM
Inconclusive results are not listed. Active and inactive are the calls of the source. Calls follow the shape of the dose curve; as a rule, active = well fitted inhibition curve with a large enough effect; inconclusive = small, poorly fitted or top-dose-only effect; inactive = flat fitted curve, though single readings scatter.
// one of active, inactive, no free text

Before answering, review these 8 worked examples.
CC(NC(C)(C)C)C(=O)c1cccc(Cl)c1 (stereo unspecified)    inactive
O=c1[nH]oc2c1CCNC2    inactive
COc1cccc(C(=O)CCN[C@@H](C)[C@H](O)c2ccccc2)c1    inactive
COc1cccc2c1C(=O)c1c(O)c3c(c(O)c1C2=O)C[C@@](O)(C(=O)CO)CC3OC1CC(N2CCOC(OC)C2)C(O)C(C)O1 (stereo partly specified)    active
Clc1ccc(C(c2ccc(Cl)cc2)C(Cl)(Cl)Cl)cc1    inactive
C=C(C)[C@H]1CN[C@H](C(=O)O)[C@H]1CC(=O)O    inactive
CNCC(=O)c1ccc(O)c(O)c1    inactive
C#C[C@]1(O)CC[C@H]2[C@@H]3CCC4=CC(=O)CC[C@]4(C)[C@H]3CC[C@@]21C    inactive

# outcome recorded in this test, key = NC(=O)c1cc([N+](=O)[O-])cc([N+](=O)[O-])c1 inactive

Same lookup for CCC(C)(C)c1ccc(O)cc1 , please. inactive

Another: CC(Cc1ccccc1)NCCn1cnc2c1c(=O)n(C)c(=O)n2C (stereo unspecified) inactive

====

assay-method-text: qHTS of pediatric cancer cell lines to identify multiple opportunities for drug repurposing: Primary screen for LAN-5 cells (AID 1347100); note: potency is the fitted concentration of half-maximal effect
experimental-conditions: LAN-5 neuroblastoma viability, CellTiter-Glo luminescence, 48 h; series mostly up to 46 µM
Records with an inconclusive call do not appear. Active and inactive are the calls of the source. The call rests on the fitted dose curve; in most records, active means well fitted cell-killing curve with a large enough effect; inconclusive means small, poorly fitted or top-dose-only effect; inactive means no such curve, though single readings can be large or run the other way.
reported-metric: Potency

Known results for compounds:
CC(NC(C)(C)C)C(=O)c1cccc(Cl)c1 (configuration not stated)    inactive
Nc1ccccc1C(=O)O    inactive
NCCc1ccc(O)cc1    inactive
COC(=O)[C@@H](N)CCCN/C(N)=N/[N+](=O)[O-]    inactive
Nc1ccc([As](=O)(O)O)cc1    inactive
Nc1nc(N)nc(NC2CC2)n1    inactive

The record that follows has no Potency shown yet.
Query: Potency; subject: C[C@]12CC[C@H]3[C@@H](CC[C@@]45O[C@H]4C(O)=C(C#N)C[C@]35C)[C@H]1CC[C@H]2O 16.6 µM (active)

====

assay-method-text: qHTS of pediatric cancer cell lines to identify multiple opportunities for drug repurposing: Primary screen for Rh41 cells (AID 1347108);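 note: luminescence drop marks cytotoxic hits; nearly all actives have a fitted effect of over 70% in size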
experimental-conditions: Rh41 rhabdomyosarcoma viability, CellTiter-Glo luminescence, 48 h; series mostly up to 46 µM
Records with an inconclusive call do not appear. Activity calls are given as the source filed them. Calls follow the shape of the dose curve; as a rule, active = well fitted cell-killing curve with a large enough effect; inconclusive = small, poorly fitted or top-dose-only effect; inactive = no such curve, though single readings can be large or run the other way.
Could you please pick one outcome from this set? yes (active), no (inactive)

CCCCCCC(=O)CCCCCC/C=C/C[C@@H](O)[C@H](O)[C@@](N)(CO)C(=O)O    no

How was Clc1cccc(SC2CCNCC2)n1 classified in this test? no

====

assay-method-text: Cell Viability - LYMP2-013 (AID 970);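 note: cells exposed to compound for 24 h at 37 °C; 0% = DMSO only and full inhibition = tetraoctylammonium bromide control; nearly all actives have a fitted effect of over 55% in size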
experimental-conditions: LYMP2-013 lymphoblastoid cells viability; series mostly up to 92.2 µM
Results filed as inconclusive are left out. Activity calls are given as the source filed them. The call rests on the fitted dose curve; in most records, active means well fitted cell-killing curve with a large enough effect; inconclusive means small, poorly fitted or top-dose-only effect; inactive means flat fitted curve, though single readings scatter.
reported-metric: outcome

Nc1ccccc1    inactive
CC(C)NC(C)C    inactive
C[C@]1(O)CC[C@H]2[C@@H]3CCC4=CC(=O)CC[C@]4(C)[C@@]3(F)[C@@H](O)C[C@@]21C    inactive
CC(C)c1cccc(C(C)C)c1O    inactive
CCC(C)(C)c1ccc(O)cc1    inactive
Clc1ccc(C(c2ccc(Cl)cc2)C(Cl)(Cl)Cl)cc1    inactive
Oc1ccc(Cl)cc1    inactive
C[C@]12CCC(=O)C=C1CC[C@@H]1[C@@H]2CC[C@]2(C)C(=O)CC[C@@H]12    inactive
O=P1(N(CCCl)CCCl)NCCCO1 (configuration not stated)    inactive
COP(=S)(OC)Oc1ccc(SC)c(C)c1    inactive

Which outcome value belongs to CN1C[C@H](C(=O)N[C@]2(C)O[C@@]3(O)[C@@H]4CCCN4C(=O)[C@H](Cc4ccccc4)N3C2=O)C=C2c3cccc4[nH]cc(c34)C[C@H]21 ? inactive

Next molecule: COc1cc(OC)c(OC)cc1C=O inactive

====

tested-system: Cytochrome P450 2D6 (Homo sapiens) (UniProt P10635)
Sequence (P10635 whole entry, looked up): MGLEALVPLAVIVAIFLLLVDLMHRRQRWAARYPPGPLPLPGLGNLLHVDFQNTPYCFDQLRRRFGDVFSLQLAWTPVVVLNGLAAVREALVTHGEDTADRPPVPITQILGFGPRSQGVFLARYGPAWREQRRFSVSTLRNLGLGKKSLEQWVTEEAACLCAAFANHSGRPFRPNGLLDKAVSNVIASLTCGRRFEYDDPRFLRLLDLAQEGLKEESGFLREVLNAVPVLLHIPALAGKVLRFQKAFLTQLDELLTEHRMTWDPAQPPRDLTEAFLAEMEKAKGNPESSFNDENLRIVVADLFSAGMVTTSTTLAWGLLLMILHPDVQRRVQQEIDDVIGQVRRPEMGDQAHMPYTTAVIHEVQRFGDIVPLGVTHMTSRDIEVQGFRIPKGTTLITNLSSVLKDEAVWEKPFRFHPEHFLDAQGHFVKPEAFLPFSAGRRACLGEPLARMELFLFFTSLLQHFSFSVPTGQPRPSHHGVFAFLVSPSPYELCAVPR
assay-method-text: Cytochrome P450 family 2 subfamily D member 6 (CYP2D6) small molecule antagonists: luciferase biochemical (cell-free) qHTS assay (AID 1645840); note: nearly all actives have a fitted effect of over 55% in size
experimental-conditions: P450-Glo CYP2D6 enzyme, luciferin luminescence, 1 h; series mostly up to 57.4 µM
Records with an inconclusive call do not appear. Calls of active or inactive are those of the source. The call rests on the fitted dose curve; in most records, active means well fitted inhibition curve with a large enough effect in the repeat runs; inconclusive means weak or mixed curves; inactive means flat fitted curve, though single readings scatter.
Returns: one label drawn from active, inactive

Example cases with answers are listed next.
COC(=O)C(Cl)C(=O)OC    inactive
COC1CC(=C(c2cccs2)c2cccs2)C[N+](C)(C)C1 (stereo unspecified)    active

What is the recorded call for this compound in the test? O=C1OC(CCN2CCCCC2)OC1(c1ccccc1)c1ccccc1 (stereo unspecified) active

One more compound: CC(=O)OCC1=C(C(=O)O)N2C(=O)[C@@H](N)[C@H]2SC1 active

Same read-out for Cc1ncsc1CCCl ? inactive

Next compound up: O=P1(N(CCCl)CCCl)NCCCO1 (stereo unspecified) inactive

Another: CCCCCCCCCCCCCCCCCC(=O)O inactive

Then this compound: CCN(CCO)CCn1c(Cc2ccccc2)nc2c1c(=O)n(C)c(=O)n2C inactive

Another compound to check: Nc1ccccc1C(=O)O inactive

Request: C[C@H](N)C(=O)c1ccccc1 active

Consider next the compound NC1=NC(=O)C(c2ccccc2)O1 (stereo unspecified) in the same way. inactive

====

assay-method-text: Quantitative High-Throughput drug screen in 47 multiple myeloma cell lines against the NCATS MIPE library collection: RPMI8226_ATCC cell viability assay (AID 1919871); note: nearly all actives have a fitted effect of over 30% in size
experimental-conditions: RPMI8226 myeloma viability, CellTiter-Glo ATP luminescence, 48 h; series mostly up to 45.8 µM
Excerpt: PI: Beverly A. Mock Ph.D. Laboratory of Cancer Biology and Genetics, Center for Cancer Research, National Cancer Institute, National Institute of Health, Bethesda, Maryland […] 5; Detector; 425V; Luminescence; Viewlux PerkinElmer. […] 1. […] Briefly, the corresponding myeloma cell lines were screened in 1,536-well plates with 500 cells, 5-uL per well for inhibition of cell viability (assessed by measuring ATP levels with CellTiterGlo). […]
Records with an inconclusive call do not appear. Calls of active or inactive are those of the source. Calls come from the whole dose curve; as a rule, active = well fitted cell-killing curve with a large enough effect; inconclusive = small, poorly fitted or top-dose-only effect, or effect the other way; inactive = no such curve, though single readings can be large or run the other way.
// one of YES = active, NO = inactive, no free text

Solved entries (count: 6):
CC(C)c1cccc(C(C)C)c1O    NO
CC(NC(C)(C)C)C(=O)c1cccc(Cl)c1 (configuration not stated)    YES
C[C@]12CC[C@H]3[C@@H](CC[C@@]45O[C@H]4C(O)=C(C#N)C[C@]35C)[C@H]1CC[C@H]2O    NO
C[C@](O)(CS(=O)(=O)c1ccc(F)cc1)C(=O)Nc1ccc(C#N)c(C(F)(F)F)c1    NO
CCC1(c2ccc(N)cc2)CCC(=O)NC1=O (configuration not stated)    NO
C[C@]12CC[C@@H]3c4ccc(OC(=O)N(CCCl)CCCl)cc4CC[C@H]3[C@@H]1CC[C@@H]2OP(=O)(O)O    NO

Short answer needed: outcome of this test for CN1C(=O)COc2c(C(=O)NC3CN4CCC3CC4)cc(Cl)cc21 (configuration not stated) ? NO
